meta.source: paper PMC5925453

# Tested on: H1975 (Leu858Arg and Thr790Met) cells
# Test Name: cells
# Type: cell-based
# Experimental Conditions: Homo sapiens, NCI-H1975, 72 h
pIC50: −log10 of the molar value.
Measurement Label: pIC50

I: C=CC(=O)Nc1cc(Nc2nccc(-c3cn(C)c4ccccc34)n2)c(OC)cc1N(C)CCN(C)C
II: C[C@H]1CNC(=O)c2cnn3ccc(nc23)N[C@H](C)c2cc(F)ccc2O1
Input: For the pair I and II , which entry has the numerically smaller recorded pIC50? Which one? Tell me its label.
Output: II
(II: 6.00, I: 7.70)

====

# Tested on: HCC4006 (exon 19 deletion) cells
# Test Name: Cell viability assay
# Format: cell-based
# Experimental Conditions: Homo sapiens, HCC4006, 72 h
pIC50: −log10 of the molar value.
Measurement Label: pIC50

a: C=CC(=O)Nc1cc(Nc2nccc(-c3cn(C)c4ccccc34)n2)c(OC)cc1N(C)CCN(C)C
b: C[C@H]1CNC(=O)c2cnn3ccc(nc23)N[C@H](C)c2cc(F)ccc2O1
Input: Between these two entries, a and b , state which has the higher pIC50. Which one? Tell me its label.
Output: a
(a: 8.00, b: 5.83)
